Biological target: CYP1A2 (Homo sapiens, UniProt P05177)
Sequence (P05177 whole entry): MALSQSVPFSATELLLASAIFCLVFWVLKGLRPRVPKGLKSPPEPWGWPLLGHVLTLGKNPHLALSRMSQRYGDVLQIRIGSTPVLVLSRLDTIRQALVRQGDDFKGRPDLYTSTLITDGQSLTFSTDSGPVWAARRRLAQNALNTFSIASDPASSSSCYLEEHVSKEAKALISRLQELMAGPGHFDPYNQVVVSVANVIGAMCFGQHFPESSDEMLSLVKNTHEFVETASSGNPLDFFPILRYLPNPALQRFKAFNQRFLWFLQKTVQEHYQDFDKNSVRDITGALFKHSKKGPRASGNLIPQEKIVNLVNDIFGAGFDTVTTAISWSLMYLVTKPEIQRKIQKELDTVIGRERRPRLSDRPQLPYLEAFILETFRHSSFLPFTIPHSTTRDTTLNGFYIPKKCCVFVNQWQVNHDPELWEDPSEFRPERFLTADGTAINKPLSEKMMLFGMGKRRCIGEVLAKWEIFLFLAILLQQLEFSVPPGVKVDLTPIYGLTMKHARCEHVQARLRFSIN
Assay: in vitro
Format: biochemical
Conditions: human, % inhibition CYP 1A2
Where a SMILES comes first, the peptide text is derived from it. [ ]: non-standard residue; d: D form. The star is where a group is joined. d(aIle) = CC[C@H](C)[C@@H](N)C(=O)O; X1 = CC[C@H](C)CCCCC(=O)*; dDab = NCC[C@@H](N)C(=O)O; Dab = NCC[C@H](N)C(=O)O
As shown below, each of these compounds has a reported inhibition at 25 min, 10 µM value.

{"compound": "Cc1nc2c([nH]1)c(=O)n(C)c(=O)n2Cc1ccco1 [Furafylline, reference compound]", "reported_relation": "=", "inhibition at 25 min, 10 µM / %": 90.8}
{"compound": "CC[C@H](C)CCCCC(=O)NCC(=O)N[C@H](CCN)C(=O)NCC(=O)N[C@H](CO)C(=O)N[C@H](Cc1c[nH]c2ccccc12)C(=O)N[C@@H](CO)C(=O)N[C@@H](CCN)C(=O)N[C@H](CCN)C(=O)N[C@H](C(=O)N[C@@H](CCC(=O)O)C(=O)N[C@H](C(=O)N[C@@H](C(=O)N[C@@H](CO)C(=O)O)[C@@H](C)CC)[C@@H](C)CC)[C@@H](C)CC [Tridecaptin M, tridecaptin M] (X1-G[dDab]G[dS][dW]S[Dab][dDab]IEI[d(aIle)]S-OH)", "reported_relation": "<", "inhibition at 25 min, 10 µM / %": 0}

---

Biological target: CYP2C9 (Homo sapiens, UniProt P11712)
Sequence (P11712 whole entry, canonical isoform): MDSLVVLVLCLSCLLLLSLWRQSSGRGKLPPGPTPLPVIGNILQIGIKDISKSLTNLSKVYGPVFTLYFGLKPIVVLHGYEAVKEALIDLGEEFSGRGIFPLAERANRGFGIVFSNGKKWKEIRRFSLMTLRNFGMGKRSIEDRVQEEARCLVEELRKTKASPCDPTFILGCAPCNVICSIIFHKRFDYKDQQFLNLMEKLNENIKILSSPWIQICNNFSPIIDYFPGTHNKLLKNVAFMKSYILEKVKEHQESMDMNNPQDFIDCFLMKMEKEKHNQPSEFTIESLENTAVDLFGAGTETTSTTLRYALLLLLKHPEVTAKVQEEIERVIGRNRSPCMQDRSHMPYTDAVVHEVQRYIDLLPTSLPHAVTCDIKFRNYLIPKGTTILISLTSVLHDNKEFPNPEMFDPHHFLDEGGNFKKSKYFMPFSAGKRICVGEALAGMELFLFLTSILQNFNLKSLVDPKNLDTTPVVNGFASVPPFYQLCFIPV
Test: CYP inhibition assay, recombinant isoform, fluorescence
Assay type: biochemical
Settings: human
Where a SMILES comes first, the peptide text is derived from it. [ ]: non-standard residue; d: D form. The star is where a group is joined. d(aIle) = CC[C@H](C)[C@@H](N)C(=O)O; X1 = CC[C@H](C)CCCCC(=O)*; dDab = NCC[C@@H](N)C(=O)O; Dab = NCC[C@H](N)C(=O)O

{"compound": "CC[C@H](C)CCCCC(=O)NCC(=O)N[C@H](CCN)C(=O)NCC(=O)N[C@H](CO)C(=O)N[C@H](Cc1c[nH]c2ccccc12)C(=O)N[C@@H](CO)C(=O)N[C@@H](CCN)C(=O)N[C@H](CCN)C(=O)N[C@H](C(=O)N[C@@H](CCC(=O)O)C(=O)N[C@H](C(=O)N[C@@H](C(=O)N[C@@H](CO)C(=O)O)[C@@H](C)CC)[C@@H](C)CC)[C@@H](C)CC [Tridecaptin M, tridecaptin M] (X1-G[dDab]G[dS][dW]S[Dab][dDab]IEI[d(aIle)]S-OH)", "inhibition at 25 min, 0.01 µM": "< 0%"}

---

Test: in vivo
Conditions: male, Sprague-Dawley, rat, plasma, sc, 5 mg/kg
Where a SMILES comes first, the peptide text is derived from it. [ ]: non-standard residue; d: D form. The star is where a group is joined. d(aIle) = CC[C@H](C)[C@@H](N)C(=O)O; X1 = CC[C@H](C)CCCCC(=O)*; dDab = NCC[C@@H](N)C(=O)O; Dab = NCC[C@H](N)C(=O)O
measurement_name: MRT last (h)

{"compound": "CC[C@H](C)CCCCC(=O)NCC(=O)N[C@H](CCN)C(=O)NCC(=O)N[C@H](CO)C(=O)N[C@H](Cc1c[nH]c2ccccc12)C(=O)N[C@@H](CO)C(=O)N[C@@H](CCN)C(=O)N[C@H](CCN)C(=O)N[C@H](C(=O)N[C@@H](CCC(=O)O)C(=O)N[C@H](C(=O)N[C@@H](C(=O)N[C@@H](CO)C(=O)O)[C@@H](C)CC)[C@@H](C)CC)[C@@H](C)CC [Tridecaptin M, tridecaptin M] (X1-G[dDab]G[dS][dW]S[Dab][dDab]IEI[d(aIle)]S-OH)", "measurement_name": "MRT last", "unit_spec": "h", "reported_result": 8.81}
